test system: Calf thymus DNA; experiment: Binding affinity to calf thymus DNA at 25 degC at pH 7.4 after 10 mins by UV-vis spectrophotometry; assay type: nucleic-acid assay; details: Bos taurus
Reported Kb by item:
attribute-measured: Kb (×10⁵ /M)

>>> result_number("O=C(CC(=O)Nc1ccc(-c2c(-c3ccc(OCCN4CCCCC4)cc3)c3ccccc3oc2=O)cc1)Nc1ccc(-c2c(-c3ccc(OCCN4CCCCC4)cc3)c3ccccc3oc2=O)cc1")
4.5
>>> result_number("O=C(CCCCC(=O)Nc1ccc(-c2c(-c3ccc(OCCN4CCCCC4)cc3)c3ccccc3oc2=O)cc1)Nc1ccc(-c2c(-c3ccc(OCCN4CCCCC4)cc3)c3ccccc3oc2=O)cc1")
1.5

###

tested on: MCF7; assay: Antiproliferative activity against human MCF7 cells after 48 hrs by MTT assay; format: functional, cell-based; details: MCF7, 48 h
pIC50: −log10 of the molar value.
Readings of pIC50 for the listed compounds
attribute-measured: pIC50

>>> result_number("O=C(CCCCC(=O)Nc1ccc(-c2c(-c3ccc(OCCN4CCCCC4)cc3)c3ccccc3oc2=O)cc1)Nc1ccc(-c2c(-c3ccc(OCCN4CCCCC4)cc3)c3ccccc3oc2=O)cc1")
4.45
>>> result_number("O=C(CCCCCCCCC(=O)Nc1ccc(-c2c(-c3ccc(OCCN4CCCC4)cc3)c3ccccc3oc2=O)cc1)Nc1ccc(-c2c(-c3ccc(OCCN4CCCC4)cc3)c3ccccc3oc2=O)cc1")
4.44
>>> result_number("O=C(CC(=O)Nc1ccc(-c2c(-c3ccc(OCCN4CCCC4)cc3)c3ccccc3oc2=O)cc1)Nc1ccc(-c2c(-c3ccc(OCCN4CCCC4)cc3)c3ccccc3oc2=O)cc1")
5.45
>>> result_number("O=C(CCCCC(=O)Nc1ccc(-c2c(-c3ccc(OCCN4CCCC4)cc3)c3ccccc3oc2=O)cc1)Nc1ccc(-c2c(-c3ccc(OCCN4CCCC4)cc3)c3ccccc3oc2=O)cc1")
4.43
>>> result_number("Nc1ccc(-c2c(-c3ccc(OCCN4CCCCC4)cc3)c3ccccc3oc2=O)cc1")
4.36
>>> result_number("Nc1ccc(-c2c(-c3ccc(OCCN4CCCC4)cc3)c3ccccc3oc2=O)cc1")
4.34
>>> result_number("O=C(CC(=O)Nc1ccc(-c2c(-c3ccc(OCCN4CCCCC4)cc3)c3ccccc3oc2=O)cc1)Nc1ccc(-c2c(-c3ccc(OCCN4CCCCC4)cc3)c3ccccc3oc2=O)cc1")
5.07
>>> result_number("O=C(Nc1ccc(-c2c(-c3ccc(OCCN4CCCC4)cc3)c3ccccc3oc2=O)cc1)c1cccc(C(=O)Nc2ccc(-c3c(-c4ccc(OCCN5CCCC5)cc4)c4ccccc4oc3=O)cc2)c1")
4.53

###

test system: HeLa; assay: Antiproliferative activity against human HeLa cells after 48 hrs by MTT assay; assay type: functional, cell-based
attribute-measured: IC50 (µM)

>>> result_number("O=C(CC(=O)Nc1ccc(-c2c(-c3ccc(OCCN4CCCC4)cc3)c3ccccc3oc2=O)cc1)Nc1ccc(-c2c(-c3ccc(OCCN4CCCC4)cc3)c3ccccc3oc2=O)cc1")
6.49
>>> result_number("O=C(CCCCC(=O)Nc1ccc(-c2c(-c3ccc(OCCN4CCCCC4)cc3)c3ccccc3oc2=O)cc1)Nc1ccc(-c2c(-c3ccc(OCCN4CCCCC4)cc3)c3ccccc3oc2=O)cc1")
34.4
>>> result_number("O=C(CCCCCCCCC(=O)Nc1ccc(-c2c(-c3ccc(OCCN4CCCC4)cc3)c3ccccc3oc2=O)cc1)Nc1ccc(-c2c(-c3ccc(OCCN4CCCC4)cc3)c3ccccc3oc2=O)cc1")
42.5

Reference source for all entries: ChEMBL document CHEMBL3286304
